Biological target: recombinant human ACC1 (rhACC1) (Homo sapiens, UniProt Q13085, DEL44-44)
Construct: recombinant baculovirus containing full length human ACC1 cDNA
Test: recombinant hACC1 Transcreener ADP detection FP assay
Details: 50 μM ATP, 30 μM acetyl-CoA
Simple rule here: IC50 less than 10 nM is true (1), otherwise false (0).

>>> answer_label("CNc1ccc2ccc(C(=O)N3CCC4(CC3)CC(=O)c3nn(C(C)(C)C)cc3C4)cc2n1")
"true (1)"
>>> answer_label("CC(C)n1ncc2c1C(=O)CC1(CCN(C(=O)c3cnc4[nH]c(C(N)=O)cc4c3)CC1)C2")
"false (0)"
>>> answer_label("CCNC(=O)c1n[nH]c2ccc(C(=O)N3CCC4(CC3)CC(=O)c3nn(C(C)(C)C)cc3C4)cc12")
"true (1)"
>>> answer_label("CC(C)n1ncc2c1C(=O)CC1(CCN(C(=O)c3cnc4[nH]nc(C(N)=O)c4c3)CC1)C2")
"false (0)"
>>> answer_label("CC(C)(C)n1cc2c(n1)C(=O)CC1(CCN(C(=O)c3ccc4c(C#N)n[nH]c4c3)CC1)C2")
"false (0)"
>>> answer_label("CC(C)n1ncc2c1C(=O)CC1(CCN(C(=O)c3ccc4c(C(N)=O)c[nH]c4c3)CC1)C2")
"true (1)"

Attention now turns to another entry.
Req: I'd appreciate it if you could check whether CC(C)n1ncc2c1C(=O)CC1(CCN(C(=O)c3ccc4[nH]cc(C(N)=O)c4c3)CC1)C2 has IC50 smaller than 10 nM.
Resp: true (1)

----------
Biological target: recombinant human ACC2 (rhACC2) (Homo sapiens, UniProt O00763, V2141I)
Construct: a full length Cytomax clone of ACC2 was purchased from Cambridge Bioscience Limited
Sequence (O00763 whole entry V2141I): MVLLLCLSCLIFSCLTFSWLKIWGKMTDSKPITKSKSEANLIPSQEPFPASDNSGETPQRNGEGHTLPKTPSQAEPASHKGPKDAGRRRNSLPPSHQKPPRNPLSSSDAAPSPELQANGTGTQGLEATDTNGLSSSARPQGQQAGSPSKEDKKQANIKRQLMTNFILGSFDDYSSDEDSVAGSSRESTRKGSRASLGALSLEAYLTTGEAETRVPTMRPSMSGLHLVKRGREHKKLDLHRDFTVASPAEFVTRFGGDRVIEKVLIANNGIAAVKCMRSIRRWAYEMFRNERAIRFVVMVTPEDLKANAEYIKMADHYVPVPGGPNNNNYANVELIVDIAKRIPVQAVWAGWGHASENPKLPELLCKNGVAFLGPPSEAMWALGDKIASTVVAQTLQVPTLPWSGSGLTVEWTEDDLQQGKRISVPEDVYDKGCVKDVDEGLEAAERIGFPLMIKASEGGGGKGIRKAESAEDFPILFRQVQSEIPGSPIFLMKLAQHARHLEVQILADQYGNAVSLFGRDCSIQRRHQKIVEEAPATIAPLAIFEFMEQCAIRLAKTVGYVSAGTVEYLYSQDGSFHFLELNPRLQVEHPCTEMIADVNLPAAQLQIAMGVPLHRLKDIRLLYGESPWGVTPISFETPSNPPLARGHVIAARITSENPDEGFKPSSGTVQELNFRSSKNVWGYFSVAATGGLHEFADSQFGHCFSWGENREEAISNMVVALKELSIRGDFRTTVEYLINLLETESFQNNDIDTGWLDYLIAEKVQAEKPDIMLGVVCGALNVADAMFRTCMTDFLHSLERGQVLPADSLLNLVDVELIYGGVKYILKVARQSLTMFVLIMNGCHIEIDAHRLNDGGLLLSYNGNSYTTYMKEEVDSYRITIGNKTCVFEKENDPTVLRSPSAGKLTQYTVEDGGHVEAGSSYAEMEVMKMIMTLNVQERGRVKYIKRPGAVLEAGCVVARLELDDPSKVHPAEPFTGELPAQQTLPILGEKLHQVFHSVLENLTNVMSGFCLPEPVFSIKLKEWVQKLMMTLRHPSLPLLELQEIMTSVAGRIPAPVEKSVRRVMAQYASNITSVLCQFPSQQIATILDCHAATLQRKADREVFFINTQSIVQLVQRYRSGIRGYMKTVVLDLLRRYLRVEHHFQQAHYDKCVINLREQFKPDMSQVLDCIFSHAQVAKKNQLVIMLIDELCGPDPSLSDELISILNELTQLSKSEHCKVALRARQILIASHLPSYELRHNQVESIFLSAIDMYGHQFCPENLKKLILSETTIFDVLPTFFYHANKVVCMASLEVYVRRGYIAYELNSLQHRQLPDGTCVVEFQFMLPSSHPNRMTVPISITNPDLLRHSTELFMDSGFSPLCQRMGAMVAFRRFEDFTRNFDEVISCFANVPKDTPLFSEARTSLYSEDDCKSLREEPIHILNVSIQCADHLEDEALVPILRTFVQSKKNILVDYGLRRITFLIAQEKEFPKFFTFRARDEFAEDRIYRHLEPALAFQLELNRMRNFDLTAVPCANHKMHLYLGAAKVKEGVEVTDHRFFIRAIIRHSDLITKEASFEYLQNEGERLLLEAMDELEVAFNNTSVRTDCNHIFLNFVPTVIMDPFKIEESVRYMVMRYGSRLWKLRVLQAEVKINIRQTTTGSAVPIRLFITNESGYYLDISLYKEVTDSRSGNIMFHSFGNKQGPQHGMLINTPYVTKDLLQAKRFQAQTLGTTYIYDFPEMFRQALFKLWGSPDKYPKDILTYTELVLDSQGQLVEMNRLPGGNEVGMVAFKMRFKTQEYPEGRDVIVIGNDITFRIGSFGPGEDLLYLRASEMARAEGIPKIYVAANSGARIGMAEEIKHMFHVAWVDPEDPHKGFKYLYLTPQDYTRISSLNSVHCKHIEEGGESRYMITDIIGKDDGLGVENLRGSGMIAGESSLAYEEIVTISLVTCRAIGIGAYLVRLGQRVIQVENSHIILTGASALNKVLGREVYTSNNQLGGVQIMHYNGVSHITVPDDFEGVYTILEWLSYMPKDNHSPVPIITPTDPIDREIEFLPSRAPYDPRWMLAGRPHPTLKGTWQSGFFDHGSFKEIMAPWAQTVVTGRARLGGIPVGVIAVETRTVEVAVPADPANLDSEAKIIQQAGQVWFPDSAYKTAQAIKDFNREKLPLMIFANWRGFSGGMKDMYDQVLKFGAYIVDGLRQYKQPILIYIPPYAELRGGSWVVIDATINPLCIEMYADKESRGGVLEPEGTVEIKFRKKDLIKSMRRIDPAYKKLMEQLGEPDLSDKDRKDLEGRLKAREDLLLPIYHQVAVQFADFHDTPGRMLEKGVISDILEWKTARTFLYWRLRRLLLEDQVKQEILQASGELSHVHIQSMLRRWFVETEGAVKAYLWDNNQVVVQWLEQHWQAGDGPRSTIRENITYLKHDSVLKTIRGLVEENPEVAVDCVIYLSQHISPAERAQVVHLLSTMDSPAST
Test: recombinant hACC2 Transcreener ADP detection FP assay
Conditions: 50 μM ATP, 30 μM acetyl-CoA
# pIC50 per record follows
Remember the convention: pIC50 equals -log10 of concentration in molar.

Below, 7 molecules whose answers are already recorded.
>>> assay_value("CC(C)(C)n1cc2c(n1)C(=O)CC1(CCN(C(=O)c3ccc4[nH]nc(C#N)c4c3)CC1)C2")
8.55
>>> assay_value("CC(C)n1ncc2c1C(=O)CC1(CCN(C(=O)c3cnc4[nH]nc(C(N)=O)c4c3)CC1)C2")
7.66
>>> assay_value("CC(C)n1ncc2c1C(=O)CC1(CCN(C(=O)c3cnc4[nH]cc(C(N)=O)c4c3)CC1)C2")
8.24
>>> assay_value("CC(C)(C)n1cc2c(n1)C(=O)CC1(CCN(C(=O)c3ccc4[nH]c(N)nc4c3)CC1)C2")
8.85
>>> assay_value("CC(C)(C)n1cc2c(n1)C(=O)CC1(CCN(C(=O)c3cnc4c(Cl)c[nH]c4c3)CC1)C2")
8.74
>>> assay_value("CNc1ccc2ccc(C(=O)N3CCC4(CC3)CC(=O)c3nn(C(C)(C)C)cc3C4)cc2n1")
8.89
>>> assay_value("CNC(=O)c1n[nH]c2ccc(C(=O)N3CCC4(CC3)CC(=O)c3c(cnn3C(C)C)C4)cc12")
8.54

Read the next record carefully.
Short answer on recombinant human ACC2 (rhACC2) (Homo sapiens, UniProt O00763, V2141I) for CNc1ccc2ccc(C(=O)N3CCC4(CC3)CC(=O)c3c(cnn3C(C)C)C4)cc2n1 , pIC50: 8.82
